protocol-notes: Acrylamide quenching of Trp fluorescence in absence and presence of lipid vesicles
Assay type: physicochemical
cond: DOPC:Cholesterol vesicles, 250 μM lipid; 2 μM peptide in PBS pH 7.0; λex 295 nm, λem 340; average of three replicates ± SD
Ends that are not written are not given here.
Label yes when Acrylamide quenching Ksv, PC/Chol is at or above 10 M⁻¹; otherwise label no.

polymer_sequence="AAKEAWTKMKGAGKAAAGKAKGAA [L1A]" cat=yes
polymer_sequence="LLKELWTKMKGAGKALLGKLKGLL [L1L]" cat=no
polymer_sequence="IIKEIWTKMKGAGKAIIGKIKGII [L1I]" cat=yes
polymer_sequence="FFKEFWTKMKGAGKAFFGKFKGFF [L1F]" cat=no

Now consider the entry below.
INPUT: Has VVKEVWTKMKGAGKAVVGKVKGVV [L1V] a recorded Acrylamide quenching Ksv, PC/Chol greater than or equal to 10 M⁻¹?
OUTPUT: yes
